# target.desc: Bromodomain-containing protein 9 (Homo sapiens, UniProt Q9H8M2)
# Sequence (Q9H8M2 whole entry): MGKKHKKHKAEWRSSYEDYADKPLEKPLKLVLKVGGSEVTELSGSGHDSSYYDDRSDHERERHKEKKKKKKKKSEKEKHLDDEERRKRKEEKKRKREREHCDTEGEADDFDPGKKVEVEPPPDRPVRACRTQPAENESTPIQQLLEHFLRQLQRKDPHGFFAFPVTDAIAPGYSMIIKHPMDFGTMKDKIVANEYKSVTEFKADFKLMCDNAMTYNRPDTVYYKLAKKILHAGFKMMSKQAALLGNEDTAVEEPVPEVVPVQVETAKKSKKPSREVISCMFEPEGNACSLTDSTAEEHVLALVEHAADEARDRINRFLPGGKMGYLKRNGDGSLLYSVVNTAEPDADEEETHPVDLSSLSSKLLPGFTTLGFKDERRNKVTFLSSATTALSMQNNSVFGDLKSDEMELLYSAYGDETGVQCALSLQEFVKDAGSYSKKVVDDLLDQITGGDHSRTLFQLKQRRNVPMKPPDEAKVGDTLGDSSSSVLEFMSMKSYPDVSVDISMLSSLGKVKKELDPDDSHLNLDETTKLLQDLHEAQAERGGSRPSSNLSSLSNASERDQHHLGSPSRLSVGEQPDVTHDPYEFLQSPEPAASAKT
# test.summary: After 20 minutes incubation at room temperature AlphaLisa Streptavidin Acceptor Beads (Perkin-AL125C) and AlphaLisa Nickel donor beads (Perkin AS 10 ID) were added to a final concentration of 15 ug/mL each.
property.measured: IC50 (µM)
Supply the numeric figure in µM, leaving out any unit text.

*Q* I am curious: what IC50 value has been reported for CC(C)n1cc(-c2ccc(C(C)(C)O)cc2)c2cc[nH]c2c1=O ?
*A* 4.1
